B1: CD69 (parent)
chain: FVAENSSLHPESGQENDATSPHFS

variants of: B1; experiment: protein stability index of a GFP-peptide fusion (GPS, HEK-293T) (PSI 1-6); higher = more stable; conditions: c terminus: a fixed tail appended;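 note: lentivirally expressed fusions sorted by FACS into six bins by GFP to DsRed ratio, PSI derived from sequencing read proportions per bin multiplied by bin number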
Measured metric: protein stability index
Reply with the value as a number alone.

stdin: Please report protein stability index for the following variant: `FVAENSSLHPESGQINDATSPHFS`
stdout: 2.51

stdin: State, in one line, measured protein stability index of `FVAENSSLHPESGQENDATSMHFS`
stdout: 2.56

stdin: Supply recorded protein stability index for `FVAENSSKHPESGQENDATSPHFS` here.
stdout: 2.68

stdin: Supply measured protein stability index of `FVATNSSLHPESGQENDATSPHFS` in your reply.
stdout: 2.37

stdin: Please give the documented protein stability index of `CVAENSSLHPESGQENDATSPHFS`
stdout: 5.02

stdin: Item `FVAENSSLHPESGQENDATSPHYS` : provide protein stability index
stdout: 3.09

stdin: State its protein stability index: `FVMENSSLHPESGQENDATSPHFS`
stdout: 3.11

stdin: Look up and report measured protein stability index for this entry: `FVAENSSLHNESGQENDATSPHFS`
stdout: 3.63

stdin: Fill in protein stability index for record `FVAENSDLHPESGQENDATSPHFS`
stdout: 4.39

stdin: State its protein stability index for this variant: `FVAENSSLHPESGQENDATCPHFS`
stdout: 2.78

stdin: Output protein stability index of `FVAENSSLHPESGQENDATSPHFD`
stdout: 3.9

stdin: Find the measured protein stability index of `FVAENSSLHPESGQENDMTSPHFS` and report it.
stdout: 2.73

stdin: // fetch protein stability index given entry `FVAENSSLHPESRQENDATSPHFS`
stdout: 2.49

stdin: Input `FVAENSSLHPESGQQNDATSPHFS` , output reported protein stability index.
stdout: 3.05

stdin: Let me know recorded protein stability index for `FVAENSSLHPESGQENDATSPFFS` , thanks.
stdout: 1.66

stdin: Determine its reported protein stability index: `FVAENSSLHPESSQENDATSPHFS`
stdout: 3.31

stdin: Report protein stability index, nothing else, for this variant: `FVAENSSLHPESGQKNDATSPHFS`
stdout: 2.76

stdin: Name the recorded protein stability index of the item `FVAENSSLHPESKQENDATSPHFS` in your answer.
stdout: 3.24

stdin: For the variant `FVAENSSLHPESGQENDATHPHFS` , give its measured protein stability index value.
stdout: 2.5

stdin: Quote protein stability index reported for `FVAENSSLKPESGQENDATSPHFS` please.
stdout: 3.62

stdin: Supply measured protein stability index of `FVAENSSLHPESGQENDATSPHQS` in your reply.
stdout: 3.8

stdin: Retrieve protein stability index measured for `FVAENSSLHPESGCENDATSPHFS` and print it.
stdout: 2.95
